Tested on: HT-29
Assay: NCI tumour cell line growth inhibition, 48 h
Where a name gives a salt, the structure may show the parent alone. Calls of active or inactive are those of the source. Cut-off read from the data, not from the text of the source: active = GI50 up to about 1.1 µM and inactive = higher.
Classes used: class 1 = active, class 0 = inactive

compound	assigned-category
O=C1C(Cl)=C(NCCO)C(=O)c2c(O)ccc(O)c21	class 0
O=S(O)CCCSSc1ccccc1	class 0
CN1CCN(c2ccc3nc(C4=C(O)C(=O)c5c(nc(CO)n5C)C4=O)[nH]c3n2)CC1	class 0
Cc1cc(NCCCCCCNc2cc(C)nc3ccc(Cl)cc23)c2cc(Cl)ccc2n1	class 0
CC[C@@H]1C(=O)OC[C@@H]1Cc1cncn1C [PILOCARPINE HYDROCHLORIDE]	class 0
CC(C)[C@@H](COC(C)(C)C)/N=C/N1CCc2c([nH]c3ccccc23)C1	class 0
CCOC1=NC(C(F)(F)F)(C(F)(F)F)N=C(N2CCCCC2)O1	class 0
CC(=O)N(C)CCc1c[nH]c2ccccc12	class 0
CC(=O)Nc1cc2c(s1)CCC1CC(=O)NN=C21 (stereo unspecified)	class 0
Cc1nn(C(=O)c2ccc(Cl)cc2)c2c1C(c1ccccc1)SC(=N)N2 (stereo unspecified)	class 0
Cc1cnc2[nH]c(-c3cccc(Cl)c3)cc(=O)c2c1	class 1

###

System: RXF 393
Assay: NCI tumour cell line growth inhibition, 48 h
Calls of active or inactive are those of the source. Rule as the data show it: active = GI50 up to about 1.1 µM and inactive = higher.
Possible outcomes: true (1) (active), false (0) (inactive)

compound	assigned-category
Cc1cnc2[nH]c(-c3cccc(Cl)c3)cc(=O)c2c1	true (1)
CCOP1(=O)CC(C)=C(Cl)C(O)C1 (configuration not stated)	false (0)
O=C(O)[C@@H](NS(=O)(=O)c1ccc([N+](=O)[O-])cc1)c1ccccc1	false (0)
CCSc1nnc2c(-c3ccccc3)n[nH]c2n1	false (0)
COc1cccc(NC(=O)C(=O)C(C(C)=O)c2nc3ccc(Cl)cc3nc2O)c1 (configuration not stated)	false (0)
COC(=O)c1c(C)cccc1C1CN=NC12Cc1cc(C)cc(C)c1C2=O (configuration not stated)	false (0)
N#CCc1ccc(/C(C#N)=C2/OC(=N)C(c3ccc(CC#N)cc3)C2=O)cc1 (configuration not stated)	false (0)
Cc1cccc2nc3cccc(C(=O)NCCN(C)C)c3nc12	true (1)
N#CCc1ccc(C(C#N)/C(CCCC(=O)Nc2cccc([N+](=O)[O-])c2)=N/NC(N)=S)cc1 (configuration not stated)	false (0)
NC(=O)NN=C1Cc2ccccc2C1	false (0)
NS(=O)(=O)c1ccc(NCc2cnc3ccccc3n2)cc1	false (0)
COCOc1cc(OC)ccc1C=O	false (0)
CC1(C)C2CCC1(C)C(OC(=O)/C=C/C(=O)OC1CC3CCC1(C)C3(C)C)C2 (configuration not stated)	false (0)
CC(=O)c1nc2ccccc2n1CC(=O)c1ccc(Cl)cc1	false (0)
Cc1cc(NCCCCCCNc2cc(C)nc3ccc(Cl)cc23)c2cc(Cl)ccc2n1	false (0)
CC#CC#C/C=C1/O[C@]2(CCC(OC(C)=O)CO2)[C@@H]2O[C@H]12 (some centres not stated)	false (0)
Oc1ccc(/C=C/c2ccc3cccc(O)c3n2)cc1O	false (0)
C=C(CN(C)C)C(=O)c1ccc(Oc2ccccc2)cc1	false (0)
C/C(=N\Nc1nc2ccccc2o1)c1cc(C)ncn1	false (0)
N#C[C@H](c1nc2ccccc2[nH]1)c1nc2ccccc2nc1Cl	false (0)
COc1ccc2c(c1O)-c1cc(O)cc3c1[C@@H](C2)N(C)CC3	false (0)
CC(=O)OC1CCn2nnc(COC(=O)NC(C)C)c21 (configuration not stated)	false (0)
COC1/C=C\C=C(/C)C(=O)NC2=CC(=O)C(NCCCl)=C(CC(C)CC(OC)C(O)C(C)/C=C(/C)C1OC(N)=O)C2=O (configuration not stated)	true (1)
CN(C)CCCN=C(N)N	false (0)
Cc1cc(-c2[nH]c(C(=O)O)cc2I)on1	false (0)
COc1ccc(-n2cnc3c(N)nc(N)nc32)cc1	false (0)
NC1=NS(=O)(=O)Nc2[nH]c(-c3ccccc3)nc21	false (0)
CCP(C)(C)=O	false (0)
CC(=O)Nc1ccc(Cl)c(Cl)c1	false (0)
CSc1s[s+]c(SC)c1[O-]	false (0)
Cc1nn(C(=O)c2ccc(Cl)cc2)c2c1C(c1ccccc1)SC(=N)N2 (configuration not stated)	false (0)
C[C@H](NC(=O)n1c2ccccc2c2ccccc21)C(=O)O	false (0)
c1csc(-c2cscc2-c2ccsc2)c1	false (0)
CC(=O)Nc1cc2c(s1)CCC1CC(=O)NN=C21 (configuration not stated)	false (0)
OCC1OC(n2cnc3c(SCc4ccccc4)ncnc32)C(O)C1O (configuration not stated)	false (0)
CN(C)c1ccc(-c2nc(N)nc3c2CCCC3)cc1	false (0)
CC(C)(c1ccc(C=O)o1)c1ccc(C(C)(C)c2ccc(C=O)o2)o1	false (0)
